Data provenance: PubChem BioAssay (NCI)

test system: HCT-15 colon; assay: NCI tumour cell line growth inhibition, 48 h; in the data active = GI50 below about 0.43 µM; inactive = the rest
Hello, when you answer, please use one of the following outcomes: 1 = active, -1 = inactive

Field: example entries. Status: answers known.
compound	classification
Cc1cccc(Cc2cnc(NC(=O)/C=C/c3ccco3)s2)c1	1
Fc1ccc(-c2ncn(C3CCNCC3)c2-c2ccnc(Oc3ccc(Oc4ccccc4)cc3)n2)cc1	-1
CC(C)=CCCC1(C)C=Cc2c(ccc3c2[nH]c2cc(O)c(C)cc23)O1 (stereo unspecified)	-1
O=C(Nc1ccc(I)cc1F)c1cc(F)ccc1O	-1
O=C(N/N=C\c1cc(Br)cc(Br)c1O)N/N=C/c1cc(Br)cc(Br)c1O	-1

Problem: Tell me the assay call for CCN(CC)Cc1cc(Nc2c3ccc(Cl)cc3nc3c(C)cccc23)ccc1O please.
Result: -1

Problem: Tell me the assay call for COC(=O)CCCCCCCCC(=O)c1c(C)[nH]c(/C=C2\N=C(c3ccc[nH]3)C=C2OC)c1C please.
Result: -1

Problem: Tell me the assay call for CCN(CC)CCn1nc2c3c(cccc3c1=O)-c1ccccc1-2 please.
Result: -1

Problem: Tell me the assay call for NC(=S)c1cn(C2OC(CO)C(O)C2O)c2ncnc(N)c12 (stereo unspecified) please.
Result: 1

Problem: Tell me the assay call for Cn1cc(C2=C(c3cccc(Cl)c3)C(=O)NC2=O)c2ccccc21 please.
Result: -1

Problem: Tell me the assay call for O=C(CN1CCN(c2cc3c(cc2F)c(=O)c(C(=O)O)cn3C2CC2)CC1)Nc1ccc(C(=O)/C=C/c2ccccc2)cc1 please.
Result: -1

---

test system: SNB-19 CNS; experiment: NCI tumour cell line growth inhibition, 48 h
reported_metric: TGI

molecule	TGI
CCCCCC(=O)OCC1(CO)C/C(=C/CC(C(C)C)C(C)C)C(=O)O1 (stereo not drawn)	> 75 µM

Problem: Requested field: TGI. Item: CC(=O)OC1COC(n2c(N)c(C#N)c(-c3ccccc3)c(C#N)c2=S)C(OC(C)=O)C1OC(C)=O (stereo not drawn)
Result: > 100 µM

Problem: Requested field: TGI. Item: COC(=O)CCCCCCCCC(=O)c1c(C)[nH]c(/C=C2\N=C(c3ccc[nH]3)C=C2OC)c1C
Result: > 100 µM

Problem: Requested field: TGI. Item: CC(=O)c1nc(C#N)c(N)o1
Result: > 100 µM

Problem: Requested field: TGI. Item: COC(=O)C12CC(NC(=O)c3csc([C@@H](C[C@H](C(C)C)N(C)C(=O)[C@@H](NC(=O)[C@H]4CCCCN4C)C(C)C)OC(C)=O)n3)(C1)C2
Result: > 33.3 µM

Problem: Requested field: TGI. Item: COc1cc2cc(Oc3ccc(NC(=O)Nc4cc(C(F)(F)F)cc(C(F)(F)F)c4)cc3)c(C)nc2cc1OCCN1CCCCC1
Result: 3.18 µM

Problem: Requested field: TGI. Item: O=C(Nc1ccccc1C(=O)O)C(=Cc1ccccc1O)NC(=O)c1ccccc1
Result: > 100 µM

Problem: Requested field: TGI. Item: O=C(N(C1=CCCC1)N(c1ccccc1)c1ccccc1)C(F)(F)F
Result: > 100 µM

---

system: NCI-H460 lung; test: NCI tumour cell line growth inhibition, 48 h
reported_metric: TGI

Example compounds with recorded TGI:
compound	assayed_target	experimental_value
CCOC(=O)CCC(NC(=O)c1ccc(Nc2nc3cc(N)cc(N)c3nc2-c2ccccc2)cc1)C(=O)OCC (stereo unspecified)	NCI-H460 lung	> 69.3 µM
COc1cc2c3c4[n+](cc2c(OC)c1OC)CCC4CCC3 (stereo unspecified)	NCI-H460 lung	> 100 µM
O=C(O)c1ccccc1/C=C1/Nc2ccccc2C1=O	NCI-H460 lung	> 100 µM
c1cc[c]([Sn]([O]c2cccc3cccnc23)([c]2ccccc2)[c]2ccccc2)cc1	NCI-H460 lung	0.0321 µM
O=C(O)CCC(NC(=O)/C(=C/c1ccccc1)NC(=O)c1ccccc1)C(=O)O (stereo unspecified)	NCI-H460 lung	> 100 µM
Cc1cccc(Cc2cnc(NC(=O)/C=C/c3ccco3)s2)c1	NCI-H460 lung	> 100 µM

Problem: Requested read-out TGI, target or system NCI-H460 lung, entry CC(=O)c1nc(C#N)c(N)o1
Result: > 100 µM

Problem: Requested read-out TGI, target or system NCI-H460 lung, entry CC(C)N(C(=O)C12C3C4C5C3C1(C(=O)N(C(C)C)C(C)C)C5C42)C(C)C (stereo unspecified)
Result: > 100 µM
